Listed molecules paired with reported GI50
tested on: KM12 colon; test: NCI tumour cell line growth inhibition, 48 h
QUANTITY_NAME: GI50

>>> observed("CCCCCCCCCCCCCCCCOP(=O)([O-])OCC[N+](C)(C)C")
"341 nM"
>>> observed("CCCCCCCC(=O)SCC/C=C/[C@@H]1CC(=O)NCc2nc(cs2)C2=N[C@@](C)(CS2)C(=O)N[C@@H](C(C)C)C(=O)N1")
"38.9 nM"
>>> observed("C[C@H]1COCCN1c1cc(C2(S(=O)(=O)C3CC3)CC2)nc(-c2ccc(NC(=S)NCCO)cc2)n1")
"49.4 nM"
>>> observed("C=C1C(=O)O[C@H]2[C@H]1CC/C(COC(=O)CCCc1c[nH]c3ccccc13)=C\\CC[C@@]1(C)O[C@@H]21")
"1890 nM"
>>> observed("CC(=O)/C=C/C1=C(c2csc3ccccc23)c2ccccc2CC1")
"14100 nM"
>>> observed("N#C/C(=N\\Nc1ccccc1)C(=O)Nc1cc(-c2ccccc2)nn1-c1ccccc1")
"2970 nM"
>>> observed("O=C1C=Cc2c1ccc1ccccc21")
"24500 nM"
>>> observed("O=C(CI)Nc1ccc(O)c2ccccc12")
"1900 nM"
>>> observed("CC(C)=CC(=O)N[C@H]1CC[C@]2(C)C3CC[C@]4(C)C(C(C)N(C)C)=CCC4C3CCC2[C@H]1O (stereo partly drawn)")
"3480 nM"
>>> observed("C[C@]12CC[C@H]3[C@@H](CC4SC(N)=NC45C/C(=N/NC(N)=O)CC[C@]35C)[C@@H]1CCC2=O (stereo partly drawn)")
"2010 nM"
>>> observed("NC(N)=NC(N)=NCCCc1ccco1")
"109000 nM"
>>> observed("CC(C)c1cccc(O)c(=O)c1")
"2.41 µg/mL"
>>> observed("CCCCCC[C@@H](C)NC(=O)c1ccc(Nc2nc3ccccc3c3occc23)cc1")
"38000 nM"

Cited source for all entries: PubChem BioAssay (NCI)
